Record form. Attribute: melting point. Fill in for each entry.

Known melting point results, listed for orientation:
>>> reported_value("COc1cc(OCc2ccc(C(F)(F)F)nc2)ccc1-c1c(Br)nc(-c2ccc(Cl)nc2)n1C")
"140 to 142 °C"
>>> reported_value("COc1cc(OCc2ccc(C(F)(F)F)nc2)ccc1-c1c(C)nc(-c2ccc(F)nc2)n1C")
"123 to 126 °C"
>>> reported_value("COc1cc(-c2nc(-c3ccc(Cl)nc3)[nH]c2Cl)ccc1OCc1cccc(F)n1")
"198 to 201 °C"
>>> reported_value("COc1cc(OCn2cccn2)ccc1-c1[nH]c(C2CCC(F)(F)CC2)nc1Cl")
"182 to 184 °C"
>>> reported_value("COc1cc(OCc2ccc(C(F)(F)F)nc2)ccc1-c1[nH]c(-c2ccc(F)nc2)nc1F")
"194 to 196 °C"

Kindly give each listed record's melting point.
1. COc1cc(OCc2ccc(C(F)(F)F)cn2)ccc1-c1[nH]c(C2CCCC(F)(F)C2)nc1Br (stereo not shown)
2. COc1cc(OCc2ncc(Cl)cc2F)ccc1-c1[nH]c(-c2ccc(F)nc2)nc1Cl
3. COc1cc(OCc2ccc(C(F)(F)F)cn2)ccc1-c1nc(-c2ccc(Cl)nc2)[nH]c1C
4. COc1cc(OCc2ccc(C(F)(F)F)nc2)ccc1-c1nc(-c2ccc(F)nc2)n(C)c1C#N

["170 to 171 °C", "172 to 175 °C", "129 to 132 °C", "165 to 167 °C"]

Kindly give each listed record's melting point.
1. COc1cc(OC(C)c2ccc(C(F)(F)F)cc2)ccc1-c1[nH]c(-c2ccc(F)nc2)nc1Cl (stereo not shown)
2. COc1cc(OCc2cccnc2C(F)(F)F)ccc1-c1[nH]c(-c2ccc(F)nc2)nc1Cl
3. COc1cc(OCc2ccncn2)ccc1-c1c[nH]c(-c2ccc(Cl)nc2)n1
4. COc1cc(OCc2ccc(C(F)(F)F)cn2)ccc1-c1nc(-c2ccc(F)cn2)[nH]c1C
5. COc1cc(OCc2ccc(C(F)(F)F)nc2)ccc1-c1nc(-c2ccc(Cl)nc2)[nH]c1Br
6. CCSc1ccc(-c2nc(Cl)c(-c3ccc(OCc4ccc(C(F)(F)F)nc4)cc3OC)[nH]2)cn1

1: 137 to 146 °C; 2: 165 to 171 °C; 3: 221 to 224 °C; 4: 180 to 182 °C; 5: 222 to 223 °C (dec.); 6: 160 to 163 °C

Any idea what its melting point is? The molecule is COc1cc(OCc2ccc(C(F)(F)F)cn2)ccc1-c1c(Cl)nc(-c2ccc(Cl)nc2)n1CC1CC1
130 to 132 °C
